assayMethodText: Human liver microsomal stability
Type: in vitro ADME
conditionsUsed: human liver microsomes; Table 4
Form field: Microsome Stability (Human) (DMPK_BIIB); Mean; in vitro t1/2 (one value per entry).
Write it as a number; the unit min goes unstated.

Recorded results for 2 molecules are shown here.
CCC1(c2cccc(-c3cncn3C(C)C)c2)C2=C(CC(C)(C)CC2=O)Nc2ncc(F)cc21 (single isomer, unassigned) [Compound 1038B] | 13
CCC1(c2ccccc2)C2=C(CC3(CCC3)CC2=O)Nc2ncc(F)cc21 (single isomer, unassigned) [Compound 1008B] | 1.6

// moving on: another record for Microsome Stability (Human) (DMPK_BIIB); Mean; in vitro t1/2
The recorded Microsome Stability (Human) (DMPK_BIIB); Mean; in vitro t1/2 for entry CCC1(c2cccc(-c3ccnc(C)c3C)c2)C2=C(CC(C)(C)CC2=O)Nc2ncccc21 (single isomer, unassigned) equals 14

---

targetUnderTest: GSK3a (GST-full length GSK3a) (Homo sapiens, UniProt P49840)
Construct: GST-full length GSK3a [SignalChem G08-10G]; purchased SignalChem G08-10G
Sequence (P49840 whole entry): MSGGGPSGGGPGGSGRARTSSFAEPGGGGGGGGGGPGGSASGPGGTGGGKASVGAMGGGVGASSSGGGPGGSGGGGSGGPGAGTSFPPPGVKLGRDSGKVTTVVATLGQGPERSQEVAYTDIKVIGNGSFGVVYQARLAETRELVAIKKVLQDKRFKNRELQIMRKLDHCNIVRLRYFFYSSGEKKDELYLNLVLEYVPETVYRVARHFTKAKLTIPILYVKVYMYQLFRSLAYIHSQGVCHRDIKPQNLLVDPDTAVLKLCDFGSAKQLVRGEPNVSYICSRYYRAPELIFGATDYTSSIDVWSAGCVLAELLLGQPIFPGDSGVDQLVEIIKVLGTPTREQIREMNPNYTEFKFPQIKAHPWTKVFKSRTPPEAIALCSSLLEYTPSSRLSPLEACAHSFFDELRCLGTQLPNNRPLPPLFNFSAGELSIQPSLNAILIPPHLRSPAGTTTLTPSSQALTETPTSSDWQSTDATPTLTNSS
assayMethodText: GSK3a TR-FRET kinase inhibition assay
Assay type: biochemical
conditionsUsed: 1 mM ATP; Table 5; read-out: GSK3α TR-FRET 1 mM ATP Average IC50
pIC50: −log10 of the molar value.
propertyName: pIC50

The recorded pIC50 for entry CN(C)c1cnc2c(c1C#N)C(C)(c1ccccc1)C1=C(CC(C)(C)CC1=O)N2 (single isomer, unassigned) [624B] equals < 4.70

The recorded pIC50 for entry CC1(C)CC2=C(C(=O)N1)C(C)(c1ccccc1)c1c(ncc(F)c1C#N)N2 (single isomer, unassigned) [604A] equals 5.30 to 6.00

The recorded pIC50 for entry COc1cnc2c(c1C#N)C(C)(c1ccccc1)C1=C(CC(C)(C)CC1=O)N2 (single isomer, unassigned) [612B] equals 4.70 to 5.30

The recorded pIC50 for entry CC1(C)CC2=C(C(=O)N1)C(C)(c1ccccc1)c1c(ncc(C(F)F)c1C#N)N2 (single isomer, unassigned) [628B] equals 5.30 to 6.00

The recorded pIC50 for entry CC1(C)CC(=O)C2=C(C1)Nc1ncc3ccccc3c1C2(C)c1ccccc1 (single isomer, unassigned) [606B] equals 5.30 to 6.00

The recorded pIC50 for entry CC1(C)CC(=O)C2=C(C1)Nc1ncc(CF)c(C#N)c1C2(C)c1ccccc1 (single isomer, unassigned) [614A] equals 4.70 to 5.30

The recorded pIC50 for entry CC1(C)CC(=O)C2=C(C1)Nc1ncc(C3CC3)c(C#N)c1C2(C)c1ccccc1 (single isomer, unassigned) [619A] equals 4.70 to 5.30

---

Tested on: MDR1
assayMethodText: MDR1/MDCK permeability assay
Type: in vitro ADME
conditionsUsed: dog, MDCK-MDR1, pH 7.4, A to B; Table 3
propertyName: Papp A→B at 120 min, 5 µM (×10⁻⁶ cm/s)
Write it as a number; the unit ×10⁻⁶ cm/s goes unstated.

The recorded Papp A→B at 120 min, 5 µM for entry CCC1(c2ccccc2)C2=C(CC(C)(C)CC2=O)Nc2ncc(C(F)(F)F)cc21 (single isomer, unassigned) [Compound 133A] equals 14

---

Form field: pIC50 (one value per entry).
targetUnderTest: GSK3b (GST-full length GSK3b) (Homo sapiens, UniProt P49841)
Construct: GST-full length GSK3b: [SignalChem G08-9G]; purchased SignalChem G08-9G
Sequence (P49841 whole entry): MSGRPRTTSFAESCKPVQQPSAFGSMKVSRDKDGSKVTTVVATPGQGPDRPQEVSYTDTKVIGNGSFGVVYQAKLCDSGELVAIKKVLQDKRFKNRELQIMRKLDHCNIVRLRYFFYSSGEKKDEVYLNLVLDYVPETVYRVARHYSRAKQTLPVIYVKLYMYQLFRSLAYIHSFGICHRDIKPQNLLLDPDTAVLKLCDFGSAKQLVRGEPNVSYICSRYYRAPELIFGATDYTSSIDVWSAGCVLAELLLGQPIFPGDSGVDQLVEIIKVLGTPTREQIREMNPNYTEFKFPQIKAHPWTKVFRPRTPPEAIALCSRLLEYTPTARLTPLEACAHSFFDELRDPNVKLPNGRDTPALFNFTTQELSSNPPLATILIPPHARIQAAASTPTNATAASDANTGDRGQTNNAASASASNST
assayMethodText: GSK3b TR-FRET kinase inhibition assay
Format: biochemical
conditionsUsed: 2 μM ATP; read-out: GSK3β TR-FRET 2 μM ATP GMean IC50
pIC50: −log10 of the molar value.

Recorded results for 2 molecules are shown here.
CCC1(c2ccccc2)C2=C(CC(C)(C)CC2=O)Nc2ncccc21 (racemic) [Compound 102] | 6.00 to 7.00
CCC1(c2cccc(-c3cccnc3)c2)C2=C(CC(C)(C)CC2=O)Nc2ncccc21 (single isomer, unassigned) [Compound 1015A] | ≥ 7.00

The recorded pIC50 for entry CCC1(c2cccc(O)c2)C2=C(CC(C)(C)CC2=O)Nc2ncc(F)cc21 (single isomer, unassigned) [Compound 1010A] equals < 5.30

The recorded pIC50 for entry CCC1(c2cccc(-c3c(F)cncc3OC)c2)C2=C(CC(C)(C)CC2=O)Nc2ncc(F)cc21 (single isomer, unassigned) [Compound 161A] equals 5.30 to 6.00
